Give growth inhibition for every item shown.
Assay: NCI Yeast Anticancer Drug Screen. Data for the rad50 strain (AID 155);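 further: 0% = growth of vehicle-only cultures of the same strain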
Conditions: S. cerevisiae rad50 strain growth inhibition; at 50.0 µM (retest, dose inferred, filed as 5.0); hits give high values
Experimental: Growth inhibition of yeast strains with defined genetic alterations is measured as a screen for potential anti-cancer activity. Selected strains with alterations in DNA damage repair or cell cycle control were exposed to compounds and growth inhibition was measured relative to vehicle treated controls. The strain used in this assay is rad50
About 79,000 compounds went through this panel and 15% of them were active in at least one assay; those are over-represented in the sample as a whole.
Response body: numeric value in %, unit text excluded.

Task item: GET /values?readout=growth inhibition&item= COc1ccc(-c2cc(-c3ccc4c(c3)CC(C)O4)nc(N)n2)cc1 (stereo not given)
Reply: 1

Task item: Look up growth inhibition: "CCCCNCc1c(O)ccc2ccccc12"
Reply: 99

Task item: Param item = N#CC(C(=O)CCCC(=O)Nc1cccc([N+](=O)[O-])c1)c1cccc2ccccc12 (stereo not given) ; retrieve measured growth inhibition.
Reply: 10

Task item: Could you tell me which growth inhibition is on file for Oc1cc(Cl)cc2c1-c1ccc(Cl)cc1C2O (stereo not given) ?
Reply: 97

Task item: I have this compound here, "CCCCCCCCCCCCCCCCSC(=NC)NC" , and I need its recorded growth inhibition.
Reply: 99

Task item: For the compound shown here, "O=C(CBr)N1c2ccccc2S(=O)(=O)c2ccc3ccccc3c21" , give the reported growth inhibition.
Reply: 97

Task item: What growth inhibition value was documented for this compound, "CCc1cccc(C(C)(C)C)c1NC(=S)N/C=C(\C#N)C(=O)c1ccc2ccccc2c1" ?
Reply: 34

Task item: Given the compound CC(=O)OCC1OC(n2ncc3c(Sc4c([N+](=O)[O-])ncn4C)ncnc32)C(OC(C)=O)C1OC(C)=O (stereo not given) , what is its reported growth inhibition?
Reply: 99

Task item: # growth inhibition lookup, item CC(N)C1C(C)CC2C3CC=C4CC(O)CCC4(C)C3CCC21C (stereo not given)
Reply: 85

Task item: Fill in the blank: the reported growth inhibition of "CCOc1ccc(Nc2nc(C)c(C(=O)/C=C/c3ccc(Cl)cc3Cl)s2)cc1" is ____.
Reply: 25

Task item: Recorded growth inhibition of O=S(=O)(c1ccccc1)C1CN=NC1c1ccccc1 (stereo not given) , please.
Reply: 79

Task item: Tell me the measured growth inhibition of "O=C(O)c1c(Cl)c(Cl)c(Cl)c(Cl)c1-c1c2ccc(=O)cc-2oc2cc(O)ccc12" , please.
Reply: 97

Task item: Quick check: growth inhibition of "CCc1ccc(/C(C)=N/NC(N)=S)cc1" ?
Reply: 89

Task item: Which growth inhibition value is on record for "O=C(O)c1ccc2c(O)c3ccccc3c(O)c2c1" ?
Reply: 72

Task item: Any idea what its growth inhibition is? The compound is "Nc1ccc(C(=O)/C=C/c2ccccn2)cc1"
Reply: 45

Task item: I'd like to know its growth inhibition. The compound in question is "COc1ccc2c(N3CCN(C(=O)C(Cl)(Cl)Cl)CC3)cc(C)nc2c1"
Reply: 4

Task item: What growth inhibition value was documented for this compound, CCN(CC)CC(O)c1ccc(/C=C/c2ccc(Cl)cc2)cc1 (stereo not given) ?
Reply: 95

Task item: # input compound: CC(C)(C)SC(=O)C1(C)OC1c1ccc([N+](=O)[O-])cc1 (stereo not given) ; wanted: its growth inhibition
Reply: 45

Task item: So what's the measured growth inhibition for this one? "O=C(Nc1cccc(C(F)(F)F)c1)C(Cl)=C(Cl)Cl"
Reply: 99

Task item: Name the recorded growth inhibition for COc1ccc(C2COc3c(ccc(O)c3O)C2)cc1 (stereo not given) .
Reply: 99

Task item: Requested read-out: growth inhibition. Entry: "O=c1c2c(F)c(F)c(F)c(F)c2sc2nccn12"
Reply: 100

Task item: Field request: growth inhibition | item: "CCN(CC)CCCCSc1ccc([N+](=O)[O-])cc1[N+](=O)[O-]"
Reply: 45

Task item: Can you look up the measured growth inhibition of "Cc1cnc(C#N)c(C#N)n1" for me?
Reply: 10

Task item: I have this compound here, "O=C(/C=C\c1ccc(Cl)c(Cl)c1)c1cccs1" , and I need its recorded growth inhibition.
Reply: -9

Task item: Need growth inhibition of "OC(Cc1ccccc1)(Cc1ccccc1)c1ccccc1" , thanks.
Reply: 98

Task item: Suppose we examine the compound "N#CC(CCCCl)(c1ccccc1)c1ccccc1" ; what growth inhibition value has been reported?
Reply: 33

Task item: Given the compound "Cc1ccc(Nc2nc(C)c(C(/C=C/c3ccc4c(c3)OCO4)=N/Nc3ccc([N+](=O)[O-])cc3[N+](=O)[O-])s2)c([N+](=O)[O-])c1" , what is its reported growth inhibition?
Reply: 43

Task item: // query growth inhibition value for entry "CN(C)CC(CN(C)C)C(=O)c1ccc2c(c1)OCO2"
Reply: -30

Task item: Entry under review: "S=C(NCCc1ccccn1)N/N=C/c1ccccn1" . Reported growth inhibition?
Reply: 99

Task item: // growth inhibition lookup, key: "Cc1cccc2c1nc1ccccc1[n+]2C"
Reply: 97

Task item: // query growth inhibition value for entry "O=C(Oc1cc([N+](=O)[O-])ccc1Cl)Oc1cc([N+](=O)[O-])ccc1Cl"
Reply: 97

Task item: Which value of growth inhibition has been reported for "Cc1cc(Cl)c2c(c1)C(=O)/C(=C/c1ccc(Cl)cc1)O2" in the records?
Reply: 99

Task item: Please look up its growth inhibition: "O=C1c2cc([N+](=O)[O-])cc3cc([N+](=O)[O-])cc(c23)C(=O)N1CCCNCCNCCCN1C(=O)c2cc([N+](=O)[O-])cc3cc([N+](=O)[O-])cc(c23)C1=O"
Reply: 93

Task item: Could you share which growth inhibition value was measured for COC(OC)C1C2C3C=CC(C4C(=O)OC(=O)C34)C12 (stereo not given) ?
Reply: 0

Task item: Name the reported growth inhibition value associated with the compound O=C1CSC(c2c[nH]c3ccccc23)N1c1cccc(Cl)c1 (stereo not given)
Reply: 93

Task item: I would be grateful if you could share the reported growth inhibition for "CN1CCC(OC(=O)c2ccc3ncccc3c2)CC1" .
Reply: 6

Task item: Recorded growth inhibition for COC(=O)C1(Cc2ccccc2C)Cc2ccc(C)cc2C1=O (stereo not given) , please?
Reply: 22

Task item: GET /values?readout=growth inhibition&item= "CCOP(=O)(OCC)/C(C#N)=C/c1ccc(Oc2ccccc2)cc1"
Reply: 97

Task item: What does the record list as growth inhibition for "COc1cc(CC#N)c(NC(C)=O)cc1OC" ?
Reply: -4

Task item: Quick one: growth inhibition for "Oc1cccc2ccc(/C=C/c3ccccn3)nc12" ?
Reply: 98

Task item: Recorded growth inhibition for N#C/C(=C\c1cc(Cl)cc(Cl)c1O)C(/C(C#N)=C/c1cc(Cl)cc(Cl)c1O)c1ccc2c(c1)OCO2 (stereo not given) , please?
Reply: 98

Task item: Param item = CC12CC[C@@H](C(C)(C)O)C1[C@@H](O)CC1(C)C2CCC2[C@@]3(C)CC[C@H](O)C(C)(C)C3C(O)C[C@]21C (stereo not given in full) ; retrieve measured growth inhibition.
Reply: 98

Task item: Quick check: growth inhibition of CCSC1(SCC)C(=O)OC2=C(CCCC2)C1N1CCOCC1 (stereo not given) ?
Reply: 21

Task item: # lookup: growth inhibition of "Cc1ccc(NCCN(C)C)c2c(=O)c3ccc(O)cc3sc12"
Reply: 96

Task item: Recorded growth inhibition of O=C1CCCC1CN1CCOCC1 (stereo not given) , please.
Reply: 97
